Value source: PubChem BioAssay (NCI)

Give growth for every item shown.
system: SNB-75 CNS; assay: NCI-60 one-dose screen, 48 h (100 = growth as untreated, 0 = no growth, -100 = all killed); settings: 10 µM unless noted
The panel holds about 83,000 compounds, 20% with a hit somewhere; the sample as a whole holds those more often.
Give bare numbers, in %.

INSERT INTO assay_data (compound, measurement_unit, reported_value) VALUES
  ('N#[N+]c1nc2nc(N)[nH]c(=O)c2[nH]1', '%', 92),
  ('CC(=O)Nc1ccc(C=C2C(=O)NC(=O)NC2=O)cc1', '%', 84.2),
  ('CC1(C)N=C(N)N=C(N)N1c1ccc(CNC(=O)Nc2ccc(S(=O)(=O)F)c(Cl)c2)c(Cl)c1', '%', 69.2),
  ('OC1(c2ccccc2F)c2ccccc2C2=NCCN21 (stereo unspecified)', '%', 104),
  ('c1ccc([As]=[As]c2ccccc2)cc1 (stereo unspecified)', '%', 14.3);

Considering CC(C)C1c2ccc(O)cc2Oc2nc(N)c(C#N)c(N)c21 (stereo unspecified) , its growth with SNB-75 CNS was recorded as 81.4
